# CB2 receptor binding percent inhibition annotations
# Experimental target: CB2 receptor (Homo sapiens, UniProt P34972)
# Construct: expressed in transfected cells
# Sequence (P34972 whole entry): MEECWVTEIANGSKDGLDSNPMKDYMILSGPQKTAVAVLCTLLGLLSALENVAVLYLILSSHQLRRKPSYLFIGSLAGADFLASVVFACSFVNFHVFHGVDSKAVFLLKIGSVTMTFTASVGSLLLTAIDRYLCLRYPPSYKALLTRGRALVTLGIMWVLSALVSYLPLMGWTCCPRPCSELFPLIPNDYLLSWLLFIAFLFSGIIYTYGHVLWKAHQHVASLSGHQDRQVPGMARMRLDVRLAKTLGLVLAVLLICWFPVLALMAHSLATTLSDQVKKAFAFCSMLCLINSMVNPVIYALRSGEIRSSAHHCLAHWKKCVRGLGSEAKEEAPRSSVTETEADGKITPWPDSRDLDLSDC
# Assay protocol: Binding assay for CB2 agonists or inverse agonists (SK-N-MC membranes, [3H]-CP-55,940)
# Measurement parameters: test concentration 0.2 μM (footnote 2); 0.2 µM
Your answer should be a plain number; it is taken to be in %.

[[record]]
molecule = "C[C@H](NS(=O)(=O)/C=C/c1n[nH]c2c1CCCCC2Cc1cccc(F)c1)c1ccccc1 (single isomer, unassigned) [Cpd 232]"
reported = 81


Now take the following molecule into account.
Q: Request the reported CB2 receptor binding percent inhibition associated with O=C(N[C@@H](CO)c1ccccc1)c1n[nH]c2c1CCCCC2Cc1cccc(Cl)c1 (stereo in doubt) [Cpd 229]
Ans: 95

----------
# EC50 annotations
# Experimental target: CB1 receptor (Homo sapiens)
# Construct: expressed in transfected cells
# Sequence (P21554 whole entry): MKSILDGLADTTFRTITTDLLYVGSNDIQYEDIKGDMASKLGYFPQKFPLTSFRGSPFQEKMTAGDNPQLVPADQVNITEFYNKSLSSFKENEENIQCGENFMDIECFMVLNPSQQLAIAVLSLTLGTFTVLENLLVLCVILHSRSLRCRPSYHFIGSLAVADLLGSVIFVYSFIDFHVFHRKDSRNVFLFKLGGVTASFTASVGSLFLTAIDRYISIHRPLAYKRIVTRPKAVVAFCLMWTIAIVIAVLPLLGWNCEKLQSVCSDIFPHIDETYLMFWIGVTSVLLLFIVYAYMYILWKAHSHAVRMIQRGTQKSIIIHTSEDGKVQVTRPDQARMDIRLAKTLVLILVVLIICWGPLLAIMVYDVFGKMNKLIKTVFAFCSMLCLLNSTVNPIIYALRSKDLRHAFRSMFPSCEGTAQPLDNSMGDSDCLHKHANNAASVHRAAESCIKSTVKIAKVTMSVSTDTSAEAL
# Assay protocol: cell-based
# Measurement parameters: CB1 Receptor Functional Inverse Agonist EC50, forskolin induced β-galactosidase activity, SK-N-MC cells
Your answer should be a plain number; it is taken to be in nM.

[[record]]
molecule = "C[C@H](NS(=O)(=O)/C=C/c1nn(-c2ccc(Cl)cc2Cl)c2c1CCCCC2Cc1cccc(Cl)c1)c1ccccc1 (stereo partly shown)"
reported = 70

[[record]]
molecule = "O=C(NN1CCOCC1)c1nn(-c2ccc(Cl)cc2Cl)c2c1CCCC/C2=C\\c1ccc(Cl)cc1"
reported = 10


Q: Request the reported EC50 associated with `C[C@@H](NC(=O)c1nn(-c2ccc(Cl)cc2Cl)c2c1CCCC/C2=C\c1ccc(Cl)cc1)C1CCCCC1`
Ans: 10

Q: Request the reported EC50 associated with COC(=O)[C@@H](Cc1ccc(O)cc1)NC(=O)c1nn(-c2ccc(Cl)cc2Cl)c2c1CCCCC2Cc1cccc(Cl)c1 (stereo partly shown)
Ans: 70

Q: Request the reported EC50 associated with CCOC(=O)[C@@H]1C2CCC(C2)[C@@H]1NC(=O)c1nn(-c2ccc(F)cc2F)c2c1CCCCC2Cc1cccc(F)c1 (stereo partly shown)
Ans: 90

Q: Request the reported EC50 associated with CCOC(=O)[C@@H]1C2CCC(C2)[C@@H]1NC(=O)c1nn(-c2ccc(F)cc2F)c2c1CCCCC2Cc1ccc(F)cc1 (stereo partly shown)
Ans: 100

----------
# Experimental target: CB2 receptor (Homo sapiens, UniProt P34972)
# Construct: expressed in transfected cells
# Assay protocol: Binding assay for CB2 agonists or inverse agonists (SK-N-MC membranes, [3H]-CP-55,940)
# Measurement parameters: read-out: CB2 receptor binding percent inhibition, test concentration 0.2 μM (footnote 2)
# inhibition at 0.2 µM annotations
Your answer should be a plain number; it is taken to be in %.

// known answers, use as guide
[[record]]
molecule = "C[C@@H](NC(=O)c1nn(-c2ccc(S(N)(=O)=O)cc2)c2c1CCCC/C2=C\\c1ccc(Cl)cc1)c1ccccc1"
recorded_endpoint = "inhibition at 0.2 µM"
reported = 27

[[record]]
molecule = "C[C@@H](NC(=O)c1nn(-c2ccc(Cl)cc2Cl)c2c1CCCC/C2=C\\c1ccc(F)cc1)c1ccccn1"
recorded_endpoint = "inhibition at 0.2 µM"
reported = 6

[[record]]
molecule = "O=C(N[C@H](CO)Cc1ccccc1)c1n[nH]c2c1CCCCC2Cc1cccc(Cl)c1 (stereo partly drawn)"
recorded_endpoint = "inhibition at 0.2 µM"
reported = 75


Q: Reported inhibition at 0.2 µM for CB2 receptor (Homo sapiens, UniProt P34972), given O=C(N[C@H](CO)c1ccccc1)c1n[nH]c2c1CCCCC2Cc1cccc(Cl)c1 (stereo partly drawn) ?
Ans: 94

Q: Reported inhibition at 0.2 µM for CB2 receptor (Homo sapiens, UniProt P34972), given `CC(C)(NC(=O)c1nn(-c2ccc(Cl)cc2Cl)c2c1CCCC/C2=C\c1ccc(F)cc1)c1ccccc1` ?
Ans: 27

Q: Reported inhibition at 0.2 µM for CB2 receptor (Homo sapiens, UniProt P34972), given `CC[C@@H](NC(=O)c1nn(-c2ccc(Cl)cc2Cl)c2c1CCCC/C2=C\c1ccc(F)cc1)c1ccccc1` ?
Ans: 9

Q: Reported inhibition at 0.2 µM for CB2 receptor (Homo sapiens, UniProt P34972), given `COc1ccc(/C=C2\CCCCc3c(C(=O)N[C@@H](C)c4ccccc4)nn(-c4ccc(Cl)cc4Cl)c32)cc1` ?
Ans: 19

Q: Reported inhibition at 0.2 µM for CB2 receptor (Homo sapiens, UniProt P34972), given COc1ccc(/C=C2\CCCCc3c(C(=O)NN4CC5CCCC5C4)nn(-c4ccc(Cl)cc4Cl)c32)cc1 (stereo not drawn) ?
Ans: 48

Q: Reported inhibition at 0.2 µM for CB2 receptor (Homo sapiens, UniProt P34972), given O=C(NC1CCCc2ccccc21)c1nn(-c2ccc(Cl)cc2Cl)c2c1CCCC/C2=C\c1ccc(F)cc1 (stereo not drawn) ?
Ans: 8

Q: Reported inhibition at 0.2 µM for CB2 receptor (Homo sapiens, UniProt P34972), given `C[C@@H](NC(=O)c1nn(-c2ccc(S(N)(=O)=O)cc2)c2c1CCCC/C2=C\c1ccc(Cl)cc1)C1CCCCC1` ?
Ans: 56

Q: Reported inhibition at 0.2 µM for CB2 receptor (Homo sapiens, UniProt P34972), given `Cn1nc(C(=O)N[C@@H](CO)c2ccccc2)c2c1/C(=C/c1cccc(F)c1)CCCC2` ?
Ans: 50

Q: Reported inhibition at 0.2 µM for CB2 receptor (Homo sapiens, UniProt P34972), given `O=C(N[C@H](CO)c1ccccc1)c1nn(-c2ccc(Cl)cc2Cl)c2c1CCCC/C2=C\c1ccc(F)cc1` ?
Ans: 34

Q: Reported inhibition at 0.2 µM for CB2 receptor (Homo sapiens, UniProt P34972), given `C[C@@H](NC(=O)c1nn(-c2cc(Cl)ccc2Cl)c2c1CCCC/C2=C\c1ccc(Cl)cc1)c1ccccc1` ?
Ans: 37

Q: Reported inhibition at 0.2 µM for CB2 receptor (Homo sapiens, UniProt P34972), given `C[C@@H](NC(=O)c1nn(-c2cc(Cl)ccc2Cl)c2c1CCCC/C2=C\c1ccc(Cl)cc1)C1CCCCC1` ?
Ans: 49

Q: Reported inhibition at 0.2 µM for CB2 receptor (Homo sapiens, UniProt P34972), given `C[C@H](NC(=O)c1nn(-c2ccccc2Cl)c2c1CCCC/C2=C\c1ccc(Cl)cc1)c1ccccc1` ?
Ans: 7

Source: patent US8378117B2
